Reference source: PubChem BioAssay (NCI)

test system: HT29 colon; experiment: NCI tumour cell line growth inhibition, 48 h

compound: CC(C)(C)c1cc(C(P(=O)(O)O)P(=O)(O)O)cc(C(C)(C)C)c1O
TGI: > 100 µM
//
compound: CC(=O)Nc1ccc(-c2csc(Nc3cccc(-c4csc(C)n4)c3)n2)cc1
TGI: > 50 µM
//
compound: Cc1c(/C=N\NC(=S)NCCNC(=S)N/N=C\c2c(C)n(C)n(-c3ccccc3)c2=O)c(=O)n(-c2ccccc2)n1C
TGI: > 100 µM
//
compound: O=C1NC2c3c(I)sc(I)c3C(O)C2O1 (centres undefined)
TGI: > 100 µM

###

system: NCI-H460 lung
Classes used: yes (1) (active), no (0) (inactive)

compound_structure_string: S=c1[nH]c(=S)c2cc3ccccc3nc2[nH]1
group_label: no (0)
--
compound_structure_string: CCCC(=O)Nc1cn(COC)c(C(=O)N2C[C@@H]3C[C@]34C2=CC(=O)c2[nH]cc(C)c24)n1
group_label: no (0)
--
compound_structure_string: O=C(/C=C/c1ccc[nH]1)c1ccc(-n2ccc(C(F)(F)F)n2)cc1
group_label: no (0)
--
compound_structure_string: COc1cnc2c(c1)C(=O)c1c-2n(CCCNC2=NCCS2)c(=O)c2cc([N+](=O)[O-])ccc12
group_label: yes (1)
